Data origin, for the record: ChEMBL document CHEMBL4396915

Test system: Aspergillus niger
Assay: Antifungal activity against Aspergillus niger NCIM 504 assessed as inhibition of fungal growth incubated for 48 to 72 hrs by broth microdilution susceptibility method
Assay type: functional
Calls of active or inactive are those of the source. The calls are words filed in the database; no cut-off is given here.
READOUT NAME: MIC

>>> df
                                     smiles  observed_measurement
0  Cc1nc(-c2ccc(Cl)cc2)sc1-c1nn(-c2ccccc2)cc1-c1cn(Cc2ccccc2)nn1            31.2 µg/mL
1  Cc1ccc(-c2nc(C)c(-c3nn(-c4ccccc4)cc3-c3cn(Cc4ccc(Cl)cc4)nn3)s2)cc1            31.2 µg/mL
2  Cc1nc(-c2ccc(F)cc2)sc1-c1nn(-c2ccccc2)cc1-c1cn(Cc2ccccc2)nn1            31.2 µg/mL
3  Cc1ccc(Cn2cc(-c3cn(-c4ccccc4)nc3-c3sc(-c4ccc(C)cc4)nc3C)nn2)cc1            31.2 µg/mL
4  Cc1nc(-c2ccc(Cl)cc2)sc1-c1nn(-c2ccccc2)cc1-c1cn(Cc2ccc(F)cc2)nn1            62.5 µg/mL
5  Cc1nc(-c2ccc(Br)cc2)sc1-c1nn(-c2ccccc2)cc1-c1cn(Cc2ccc(Cl)cc2)nn1            62.5 µg/mL
6  Cc1nc(-c2ccccc2)sc1-c1nn(-c2ccccc2)cc1-c1cn(Cc2ccc(Br)cc2)nn1            62.5 µg/mL
7  Cc1nc(-c2ccc(Br)cc2)sc1-c1nn(-c2ccccc2)cc1-c1cn(Cc2ccccc2)nn1            62.5 µg/mL

Could you report MIC for every entry in the following list?
1. Cc1nc(-c2ccccc2)sc1-c1nn(-c2ccccc2)cc1-c1cn(Cc2ccccc2)nn1
2. C[C@@H](c1nc(-c2ccc(C#N)cc2)cs1)[C@](O)(Cn1cncn1)c1ccc(F)cc1F

1: inactive; 2: 31.2 µg/mL

Could you report MIC for every entry in the following list?
1. OC(Cn1cncn1)(Cn1cncn1)c1ccc(F)cc1F
2. Cc1nc(-c2ccc(F)cc2)sc1-c1nn(-c2ccccc2)cc1-c1cn(Cc2ccc(Br)cc2)nn1
3. Cc1nc(-c2ccc(Cl)cc2)sc1-c1nn(-c2ccccc2)cc1-c1cn(Cc2ccc(Cl)cc2)nn1

["7.81 µg/mL", "125 µg/mL", "125 µg/mL"]

Could you report MIC for every entry in the following list?
1. Cc1nc(-c2ccc(Br)cc2)sc1-c1nn(-c2ccccc2)cc1-c1cn(Cc2ccc(Br)cc2)nn1
2. Cc1nc(-c2ccc(F)cc2)sc1-c1nn(-c2ccccc2)cc1-c1cn(Cc2ccc(Cl)cc2)nn1
3. Cc1nc(-c2ccc(Br)cc2)sc1-c1nn(-c2ccccc2)cc1-c1cn(Cc2ccc(F)cc2)nn1
4. Cc1nc(-c2ccccc2)sc1-c1nn(-c2ccccc2)cc1-c1cn(Cc2ccc(F)cc2)nn1

["inactive", "31.2 µg/mL", "62.5 µg/mL", "125 µg/mL"]

Could you report MIC for every entry in the following list?
1. Cc1ccc(Cn2cc(-c3cn(-c4ccccc4)nc3-c3sc(-c4ccc(Br)cc4)nc3C)nn2)cc1
2. Cc1ccc(Cn2cc(-c3cn(-c4ccccc4)nc3-c3sc(-c4ccc(Cl)cc4)nc3C)nn2)cc1

["31.2 µg/mL", "125 µg/mL"]
